Let's look at some compounds and their measured intrinsic clearance, rat liver microsomes.

See these solved cases before continuing.
C#CCNC(=O)CCc1c(C)nn(C)c1C = ≤ 10.7 mL/min/kg
Cc1cc(C(=O)N2CCS(=O)(=O)CC2)c(C)o1 = ≤ 10.7 mL/min/kg

We next turn to a different compound, shown below.
Suppose we examine the compound OCc1cnnn1-c1cncc(Cl)n1 ; what intrinsic clearance, rat liver microsomes value has been reported?
≤ 10.7 mL/min/kg

====

measuredMetric: intrinsic clearance, rat liver microsomes (mL/min/kg)

CC(C)c1nnc(NCc2cc(F)cc(F)c2)o1 = 111
OCCN1CCN(c2ccnc3ccc(Br)cc23)CC1 = 114
O=C(c1cccc(CNc2ccc3nccnc3n2)c1)N1CCCCC1 = 146

I. CCc1noc(-c2ccc(C)c(N)c2)n1
II. COc1ccc([C@H]2CN(C(C)=O)[C@@H]3CCCN(Cc4cccc(F)c4)[C@H]23)cc1
III. CC(C)Cc1cc(CN2CCN(S(=O)(=O)N3CCOCC3)CC2)n[nH]1
IV. COc1ccc(-c2noc([C@@H]3CCCN3Cc3ccccc3)n2)cn1
Ascending sort, intrinsic clearance, rat liver microsomes. The reply should contain the labels ordered as requested.
I, III, IV, II
(I: 196 mL/min/kg, III: 284 mL/min/kg, IV: 1150 mL/min/kg, II: 1970 mL/min/kg)

====

conditions: pH 6.8
measuredMetric: aqueous solubility (µg/mL)

CCC1(O)CN(c2ncnc3c2c(Br)nn3C)C1 = 49.1

A. Cc1ccc2nc(C)c(C(=O)NOCc3ccccc3)cc2c1
B. Cc1nccn1-c1cncc(N2CCN(CC3CCCC3)C(=O)C2)n1
Lowest aqueous solubility? choose A or B Let me know the label of the one you choose.
A
(A: 20.2 µg/mL, B: 49.7 µg/mL)

====

Let's look at some compounds and their measured intrinsic clearance, rat liver microsomes.

CN(c1ncc(F)cn1)[C@H]1CCCNC1 = ≤ 10.7 mL/min/kg
Nc1nncc(-c2ccccc2OC(F)F)n1 = ≤ 10.7 mL/min/kg

We next turn to a different compound, shown below.
Suppose we examine the compound O=C(NCCc1cnn[nH]1)C1Cc2ccccc2C1 ; what intrinsic clearance, rat liver microsomes value has been reported?
≤ 10.7 mL/min/kg

====

measuredMetric: intrinsic clearance, rat liver microsomes

Cc1nc2ncc3c(n2n1)CC(C)(C)CC3=O = ≤ 10.7 mL/min/kg
O=C(Nc1nncs1)c1cccnc1 = ≤ 10.7 mL/min/kg
Cc1ccccc1-n1cc[nH]c(=O)c1=O = ≤ 10.7 mL/min/kg
N=C(N)NCCCCC(=O)Nc1ccc(C[C@H](NC(=O)[C@@H]2CCCN2S(=O)(=O)c2ccccc2)C(=O)O)cc1 = ≤ 10.7 mL/min/kg
CN(Cc1cnn(C)c1)C(=O)c1ccccc1-c1ccccc1C#N = ≤ 10.7 mL/min/kg

We next turn to a different compound, shown below.
Suppose we examine the compound C[C@H]1O[C@@H](Oc2c(-c3cc(O)c(O)c(O)c3)oc3cc(O)cc(O)c3c2=O)[C@@H](O)[C@H](O)[C@H]1O ; what intrinsic clearance, rat liver microsomes value has been reported?
≤ 10.7 mL/min/kg

====

measuredMetric: MDR1-MDCK efflux ratio

See these solved cases before continuing.
Cc1cc(C)c(S(=O)(=O)Nc2ccc3c(c2)OCO3)c(C)c1-n1cnnn1 = 24.1
O=C(O)C1CN(Cc2ccc(OCc3ccc(Cl)c(Cl)c3)cc2)C1 = 4.1
c1ccc(Cc2n[nH]c(CSc3ccccc3)n2)cc1 = 0.734
Cc1cc(-c2nccs2)nc(CC2CCNCC2)n1 = 20.1
Cc1oc(C)c(C(=O)N(C)Cc2ccccc2N2CCOCC2)c1C = 1.58
c1ccc(Nc2nc(N3CCNCC3)nc(N3CCOCC3)n2)cc1 = 43.2

I. Cc1cc(C)c(NC(=O)c2cc(Cl)ccc2F)c(C)n1
II. Cc1nc(N2CCOc3ccccc3C2)c2cnn(C)c2n1
Lowest MDR1-MDCK efflux ratio? choose I or II Let me know the label of the one you choose.
II
(II: 0.513, I: 0.756)

1. O=C(c1cccnc1)N1CCCC(c2cccc(-c3cccc(Cl)c3)n2)C1 (centres undefined)
2. CCC(=O)Nc1ccc(F)c(NC(=O)N2CC=C(C)CC2)c1
3. CC1=NN(c2ccc(F)cc2)C(=O)/C1=C(/C)Nc1ccc(S(N)(=O)=O)cc1
4. Cc1cccc(Oc2cc(CN)ccn2)c1C
5. O=C(Nc1ccccc1)Nc1ccc(-c2ccc(C(=O)[C@H]3CCC[C@@H]3C(=O)O)cc2)cc1
Arrange the 5 compounds from largest to smallest MDR1-MDCK efflux ratio. The reply should contain the labels ordered as requested.
3, 5, 2, 1, 4

Reference source: the Biogen ADME set (Fang et al. 2023)
